Reference for the values: patent US10150761B2

Give melting point for every item shown.
Counter-ions that a name gives are not always drawn.
Give bare numbers, in °C.

Recorded results for 8 compounds are shown here.
>  <COMPOUND>
Clc1ccc(-c2ncccc2N2CCN(c3ccncc3)CC2)cc1Cl [Compound 11]

>  <melting point / °C>
159.5

$$$$
>  <COMPOUND>
c1cnc(-c2ccc3ncsc3c2)c(N2CCN(c3ccncc3)CC2)c1 [Compound 45]

>  <melting point / °C>
196

$$$$
>  <COMPOUND>
c1ccc(-c2ncccc2N2CCN(c3ccncc3)CC2)cc1 [Compound 2]

>  <melting point / °C>
204.15

$$$$
>  <COMPOUND>
Cn1ccc2cc(-c3ncccc3N3CCN(c4ccncc4)CC3)ccc21 [Compound 24]

>  <melting point / °C>
197

$$$$
>  <COMPOUND>
c1cnc(-c2ccc3ccccc3c2)c(N2CCN(c3ccncc3)CC2)c1 [Compound 10]

>  <melting point / °C>
162.05

$$$$
>  <COMPOUND>
c1cnc(-c2cc3ccccc3o2)c(N2CCN(c3ccncc3)CC2)c1 [Compound 23]

>  <melting point / °C>
252

$$$$
>  <COMPOUND>
CCn1ccc2cc(-c3ncccc3N3CCN(c4ccncc4)CC3)ccc21 [Compound 37]

>  <melting point / °C>
110

$$$$
>  <COMPOUND>
c1cnc(-c2ccc3[nH]ccc3c2)c(N2CCN(c3ccncc3)CC2)c1 [Compound 36]

>  <melting point / °C>
252

$$$$

I would be grateful if you could provide melting point for each of the following entries.
1. c1ccc(-c2ccc(-c3ncccc3N3CCN(c4ccncc4)CC3)cc2)cc1 [Compound 59]
2. COCCCn1c(-c2ncccc2N2CCN(c3ccncc3)CC2)cc2ccccc21 (as salt: fumarate)
3. CC(=O)c1cccc(-c2ncccc2N2CCN(c3ccccc3)CC2)c1 [Compound 8]
4. c1ccc(Oc2nccnc2N2CCN(c3ccncc3)CC2)cc1 [Compound 54]
5. OCCCn1ccc2cc(-c3ncccc3N3CCN(c4ccncc4)CC3)ccc21 [Compound 46]
6. CC(=O)c1cccc(-c2nccnc2N2CCN(c3ccccc3)CC2)c1 [Compound 1]
7. c1cnc(-c2cccc3cc[nH]c23)c(N2CCN(c3ccncc3)CC2)c1 [Compound 39]

1: 98; 2: 168; 3: 175.94; 4: 130; 5: 110; 6: 172.56; 7: 162

====

Assay: Cytotoxicity in HeLa cells (ATP content, ATPlite kit)
Type: cell-based
Details: human, three days incubation, read-out: TOX HELA pCC50 (converted)
Give CC50 at 3 days for every item shown.
Give bare numbers, in µM.

>  <COMPOUND SMILES>
COc1cc(N2CCN(c3cccnc3-c3ccccc3)CC2)ccn1

>  <CC50 at 3 days, µM>
0.257

$$$$
>  <COMPOUND SMILES>
Cn1nccc1-c1ccc(-c2ncccc2N2CCN(c3ccncc3)CC2)cc1

>  <CC50 at 3 days, µM>
97.7

$$$$
>  <COMPOUND SMILES>
c1cnc(-c2ccc(C3CCCCC3)cc2)c(N2CCN(c3ccncc3)CC2)c1

>  <CC50 at 3 days, µM>
3.47

$$$$
>  <COMPOUND SMILES>
c1cnc(-c2cccc3ccccc23)c(N2CCN(c3ccncc3)CC2)c1

>  <CC50 at 3 days, µM>
7.41

$$$$

Quick one: CC50 at 3 days for `Cn1c(-c2ncccc2N2CCN(c3ccncc3)CC2)cc2ccccc21` ?
53.7
